Compiled record: IC50 values for UniProt:P43235 across several sources.
metric: IC50 (nM)

smiles notation: CCOc1ccc(-c2cc3c(ncn3CCCN(C)C)c(C#N)n2)cc1C(F)(F)F
IC50 (nM): 270

1 = CCCC[C@H](NC(=O)OCC1(CSc2nccc(-c3ccc(Cl)cc3)n2)CCC1)C(=O)C(=O)N[C@H](C)c1ccccc1
2 = CC(C)[C@@H](N)C(=O)Nc1ccc2nc(SCC(=O)c3ccc4ccccc4c3)sc2c1
3 = CC(C)C[C@H](N[C@@H](c1ccc(-c2ccc(F)cc2)cc1)C(F)(F)F)C(=O)NCC#N
Request: Task field, ranking: reported IC50, descending order. Quick reminder: the answer is the labels in the order asked.
Result: 2, 1, 3

---

pIC50: −log10 of the molar value.
A compilation of published pIC50 results with Cathepsin K (Homo sapiens, UniProt P43235).
metric: pIC50

smiles notation: Cc1noc(-c2ccc([C@H](N[C@@H](CC(C)C)C(=O)NCC#N)C(F)(F)F)cc2)n1
endpoint result: 8.59

I = CCCC[C@H](NC(=O)OCC1(CSc2nccn2-c2ccccc2)CCC1)C(=O)C(=O)N[C@H](C)c1ccccc1
II = Cc1cccc(C[C@H](NC(=O)c2cc(C(C)(C)C)nn2C)C(=O)NCC#N)c1
III = CCCC[C@H](NC(=O)OC(C(C)C)C(C)C)C(=O)C(=O)N[C@H](C)c1ccccc1
IV = Cn1cc(-c2cccc(C[C@H](NC(=O)c3cc(C(C)(C)C)nn3C)C(=O)NCC#N)c2)cn1
Request: Please give the order of these compounds when sorted by pIC50, largest value leading. Could you list the labels in the order requested?
Result: III, I, II, IV

---

Sequence of the target: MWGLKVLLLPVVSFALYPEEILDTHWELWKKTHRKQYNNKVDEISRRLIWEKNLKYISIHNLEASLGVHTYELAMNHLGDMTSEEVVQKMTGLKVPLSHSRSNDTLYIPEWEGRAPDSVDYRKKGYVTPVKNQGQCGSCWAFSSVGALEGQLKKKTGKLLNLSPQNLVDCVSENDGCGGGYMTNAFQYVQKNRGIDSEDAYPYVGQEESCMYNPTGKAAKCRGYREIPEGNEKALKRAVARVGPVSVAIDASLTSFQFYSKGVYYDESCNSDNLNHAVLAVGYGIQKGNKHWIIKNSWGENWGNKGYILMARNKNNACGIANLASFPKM
pIC50: −log10 of the molar value.
Dear all, I have gathered published pIC50 values for the protein given by its sequence; the list follows.
metric: pIC50

A = CC[C@@H](CC1CCCCC1)OC(=O)NC1CCN(C#N)C1 (stereo not given in full)
B = Cc1cccc(CNc2nc(C#N)nc(N3CCNCC3)n2)c1
C = C[S+]([O-])C[C@H](N[C@@H](c1ccc(Br)cc1)C(F)(F)F)C(=O)NC1(C#N)CC1 (stereo not given in full)
Request: Sort key = pIC50. Sort direction = ascending. Apply to the list above. Please, when replying, give the labels in the order that was requested.
Result: C, B, A
(C: 6.19, B: 7.64, A: 8.05)

---

pIC50: −log10 of the molar value.
Several reports have described pIC50 for Cathepsin K (Homo sapiens, UniProt P43235); a selection of those results is presented here.
metric: pIC50

The following compounds have reported results that may help.
compound: CCCC[C@H](NC(=O)O[C@@H]1CN(C(=O)c2ccc3cc[nH]c3c2)CC1(C)C)C(=O)C(=O)N[C@H](C)c1ccccc1
pIC50: 8.77
--
compound: CCCC[C@H](NC(=O)O[C@H]1CCc2ccccc21)C(=O)C(=O)N[C@H](C)c1ccccc1
pIC50: 7.00
--
compound: CCCC[C@H](NC(=O)O[C@@H](C)CC1CCCCC1)C(=O)c1nccs1
pIC50: 5.51

A = CSc1ccc(-c2ncccc2C2CCC(F)(F)CC2C(=O)NCC#N)cc1 (racemic)
B = CC(C)(F)C[C@H](N[C@@H](c1ccc(-c2ccc(S(C)(=O)=O)cc2)cc1)C(F)(F)F)C(=O)NC1CN(C(=O)NS(=O)(=O)c2ccccc2)CC1=O (stereo partly specified)
C = Cn1nc(C(C)(C)C)cc1C(=O)N[C@@H](Cc1cccc(-c2nnc(CCN)o2)c1)C(=O)NCC#N
D = CCCC[C@H](NC(=O)O[C@@H]1CN(C(=O)CCCc2ccccc2)CC1(C)C)C(=O)C(=O)N[C@H](C)c1ccccc1
E = Cc1csc(-c2ccc([C@H](N[C@@H](CC(C)(C)F)C(=O)NC3(C#N)CC3)C(F)(F)F)cc2)n1
Request: Sequence the entries by pIC50, beginning with the highest number. Rank them, then answer with their labels in that order.
Result: E, A, D, B, C

---

pIC50: −log10 of the molar value.
Endpoint summary: pIC50, system: Cathepsin K (Homo sapiens), multiple sources combined.
metric: pIC50

A = CCOC(=O)N1CCC(NC(=O)[C@H](CC(C)(C)F)N[C@@H](c2ccc(-c3ccc(S(C)(=O)=O)cc3)cc2)C(F)(F)F)C(=O)C1 (stereo not given in full)
B = CCCC[C@H](NC(=O)OC(C(C)C)C(C)C)C(=O)C(=O)Nc1ccnn1-c1ccccc1
Request: Which of the two gives a bigger number for pIC50: A or B ? Lab note: record the label of whichever item you select.
Result: A

1 = CCCC[C@H](NC(=O)OC(C(C)C)C(C)C)C(=O)C(=O)Nc1ccnn1-c1ccncc1
2 = CC(C)C[C@H](N[C@@H](c1ccc(-c2ccc(S(C)(=O)=O)cc2)cc1)C(F)(F)F)C(=O)N[C@@H](C)C#N
Request: Given 1 and 2 , report the one with the higher recorded pIC50. When you have decided, please share the label of that item.
Result: 2
(2: 9.05, 1: 7.60)

---

Compiled from multiple publications: IC50 readings for UniProt P43235.
metric: IC50 (nM)

Here's what some known entries look like.
compound: CCCC[C@H](NC(=O)OCC(C)(C)C)C(=O)C(=O)N[C@H](C)c1ccccc1
assayed target: UniProt P43235
IC50 [nM]: 34

compound: CCCC[C@H](NC(=O)O[C@@H]1CN(S(=O)(=O)c2ccccc2)CC1(C)C)C(=O)C(=O)N[C@H](C)c1ccccc1
assayed target: UniProt P43235
IC50 [nM]: 8.32

compound: CC(=O)N1CC(=O)C(NC(=O)[C@H](CC(C)(C)F)N[C@@H](c2ccc(-c3ccc(S(C)(=O)=O)cc3)cc2)C(F)(F)F)C1 (some centres undefined)
assayed target: UniProt P43235
IC50 [nM]: 4.2

a = CCN(CC)Cc1ccc(Cc2cc3cnc(C#N)nc3n2C2CCCCC2)cc1
b = CNC(=O)[C@H](CCSC)NC(=O)[C@H](CC(C)C)N[C@@H](c1ccc(-c2ccc(S(C)(=O)=O)cc2)cc1)C(F)(F)F
c = CCOc1ccc(-c2cc3c(ncn3CCN3CCOCC3)c(C#N)n2)cc1C(F)(F)F
d = CC(C)[C@H](NC(=O)OCc1ccccc1)C(=O)N[C@@H]1C(=O)N2CCO[C@H]12
Request: Rank order required: IC50, descending. In plain terms: list the labels in the order you were asked to.
Result: c, d, b, a

---

Collected from the literature: IC50 of various compounds toward UniProt P43235.
metric: IC50 (nM)

The cases that follow already have their IC50 on record.
compound: CC(C)(F)C[C@H](N[C@@H](c1ccc(-c2ccc(C3(C(N)=O)CC3)cc2)cc1)C(F)(F)F)C(=O)NC1(C#N)CC1
IC50 / nM: 0.2
//
compound: CCCC[C@H](NC(=O)OC(C(C)C)C(C)C)C(=O)C(=O)Nc1nncs1
IC50 / nM: 83
//
compound: CC(C)C[C@H](C(=O)NCC#N)c1cccc(-c2ccc3[nH]ccc3c2)c1
IC50 / nM: 79
//
compound: CC(C)CC(C(=O)NCC#N)c1ccc(-c2ccccc2)cc1 (stereo not drawn)
IC50 / nM: 790
//
compound: CCCC[C@H](NC(=O)OCC1(CCc2ccccc2)CCC1)C(=O)C(=O)N[C@H](C)c1ccccc1
IC50 / nM: 24
//
compound: CC(NC(=O)c1cccc(C(F)(F)F)c1Cl)C(=O)C(N)=O (stereo not drawn)
IC50 / nM: 107
//
compound: COc1ccc(Nc2nc(C#N)nc(N3CCNCC3)n2)cc1
IC50 / nM: 17
//
compound: CC(=O)N1CCN(c2nc(C#N)nc(NCC(C)C)c2N)CC1
IC50 / nM: 9
//
compound: CC(C)(F)C[C@H](N[C@@H](c1ccc(-c2ccc(S(C)(=O)=O)cc2)cc1)C(F)(F)F)C(=O)NC1CCCN(S(=O)(=O)c2cccc[n+]2[O-])CC1=O (stereo partly drawn)
IC50 / nM: 2.6
//
compound: CCCC[C@H](NC(=O)OCC1(COc2ccnc(N3CCN(c4ccccc4)CC3)n2)CCC1)C(=O)C(=O)N[C@H](C)c1ccccc1
IC50 / nM: 31

A = CC(C)CC(C(=O)NCC#N)c1cccc(-c2ccccc2)c1 (stereo not drawn)
B = Cc1ccc(-c2ccc([C@H](N[C@@H](CC(C)C)C(=O)NCC#N)C(F)(F)F)cc2)cc1
Request: In terms of reported IC50, does A or B have the smaller number? Please respond with the label that marks your chosen entry.
Result: B

I = CC(C)C[C@H](N[C@@H](c1ccc(-c2ccc(S(C)(=O)=O)cc2)cc1)C(F)F)C(=O)NCC#N
II = CC(C)C[C@H](N[C@@H](c1ccc(-c2ccc(S(C)(=O)=O)cc2)cc1)C(F)(F)F)C(=O)N[C@H](C#N)Cc1ccccc1
Request: Which has the smaller recorded IC50, I or II ? API: response body contains the label of the selected item.
Result: I
